Test system: HEK293
Assay: Cytotoxicity against HEK293 cells measured after 48 hrs by MTT assay
Type: cell-based
Details: Homo sapiens, HEK293, 48 h
# maps each entry to its IC50
MEASURE_NAME: IC50 (µM)

INSERT INTO measurements (smiles_text, measure_name, unit, value_comparator, data_value) VALUES
  ('COc1cc(-c2nnc(SCC(=O)Nc3ccccc3F)n2N)cc(OC)c1OC', 'IC50', 'µM', '>', 100),
  ('COc1cccc(NC(=O)CSc2nnc(-c3cc(OC)c(OC)c(OC)c3)n2N)c1', 'IC50', 'µM', '=', 100),
  ('COc1cc(-c2nnc(SCC(=O)Nc3ccc(C)cc3)n2N)cc(OC)c1OC', 'IC50', 'µM', '=', 79.4),
  ('COc1cc(-c2nnc(SCC(=O)c3ccc(C)cc3)n2N)cc(OC)c1OC', 'IC50', 'µM', '=', 100),
  ('COc1ccc(C(=O)CSc2nnc(-c3cc(OC)c(OC)c(OC)c3)n2N)cc1', 'IC50', 'µM', '=', 100);

---

Test system: HepG2
Experiment: Antiproliferative activity against human HepG2 cells measured after 48 hrs by MTT assay
Assay type: functional, cell-based
Settings: HepG2, 48 h
MEASURE_NAME: IC50

INSERT INTO measurements (smiles_text, measure_name, data_value) VALUES
  ('COc1ccc(CNC(=O)CSc2nnc(-c3cc(OC)c(OC)c(OC)c3)n2N)cc1OC', 'IC50', '> 100 µM'),
  ('COc1cc(NC(=O)CSc2nnc(-c3cc(OC)c(OC)c(OC)c3)n2N)cc(OC)c1OC', 'IC50', '> 100 µM'),
  ('COc1ccc(CCNC(=O)CSc2nnc(-c3cc(OC)c(OC)c(OC)c3)n2N)cc1', 'IC50', '> 100 µM'),
  ('COc1cc(-c2nnc(SCC(=O)Nc3ccccc3C)n2N)cc(OC)c1OC', 'IC50', '> 100 µM'),
  ('COc1ccc(C(=O)CSc2nnc(-c3cc(OC)c(OC)c(OC)c3)n2N)cc1', 'IC50', '> 100 µM'),
  ('COc1cc(-c2nnc(SCC(=O)c3ccc(C(F)(F)F)cc3)n2N)cc(OC)c1OC', 'IC50', '> 100 µM'),
  ('COc1cc(-c2nnc(SCC(=O)c3cccc(Br)c3)n2N)cc(OC)c1OC', 'IC50', '56 µM'),
  ('COc1cc(-c2nnc(SCC(=O)Nc3ccccc3)n2N)cc(OC)c1OC', 'IC50', '49.9 µM'),
  ('COc1cc(-c2nnc(SCC(=O)c3ccc(Br)cc3)n2N)cc(OC)c1OC', 'IC50', '92.5 µM'),
  ('COc1cc(-c2nnc(SCC(=O)c3ccc(F)c(F)c3)n2N)cc(OC)c1OC', 'IC50', '> 100 µM'),
  ('COc1cc(-c2nnc(SCC(=O)c3ccc(F)cc3)n2N)cc(OC)c1OC', 'IC50', '90.4 µM'),
  ('COc1cc(-c2nnc(SCC(=O)NCc3ccc(C)cc3)n2N)cc(OC)c1OC', 'IC50', '> 100 µM'),
  ('COc1cc(-c2nnc(SCC(=O)c3ccc(Cl)cc3)n2N)cc(OC)c1OC', 'IC50', '> 100 µM'),
  ('COc1cc(-c2nnc(SCC(=O)NCCc3ccc(Cl)cc3)n2N)cc(OC)c1OC', 'IC50', '> 100 µM'),
  ('COc1cc(-c2nnc(SCC(=O)Nc3ccccc3F)n2N)cc(OC)c1OC', 'IC50', '18.7 µM'),
  ('COc1cc(-c2nnc(SCC(=O)NCCc3ccccc3)n2N)cc(OC)c1OC', 'IC50', '> 100 µM'),
  ('COc1cc(-c2nnc(SCC(=O)NCCc3ccc(C)cc3)n2N)cc(OC)c1OC', 'IC50', '> 100 µM'),
  ('COc1cc(-c2nnc(SCC(=O)NCCc3ccc(F)cc3)n2N)cc(OC)c1OC', 'IC50', '> 100 µM'),
  ('COc1cc(-c2nnc(SCC(=O)c3ccccc3F)n2N)cc(OC)c1OC', 'IC50', '22.6 µM');
